The measured values listed here are drawn from the supplement of paper PMC3334620.

- target or system: Yap3 (UniProt P38749)
- Sequence: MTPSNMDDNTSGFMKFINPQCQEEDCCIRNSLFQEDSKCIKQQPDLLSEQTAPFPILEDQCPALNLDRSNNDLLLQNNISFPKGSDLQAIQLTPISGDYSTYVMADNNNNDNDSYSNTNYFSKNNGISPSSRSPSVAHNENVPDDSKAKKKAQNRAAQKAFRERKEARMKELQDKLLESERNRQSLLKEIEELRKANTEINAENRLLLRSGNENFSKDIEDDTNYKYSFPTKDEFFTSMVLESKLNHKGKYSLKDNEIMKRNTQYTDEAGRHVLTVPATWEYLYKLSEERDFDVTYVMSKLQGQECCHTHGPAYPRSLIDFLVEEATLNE
- protocol details: PBM E-score (8-mer binding enrichment) (E-score (-0.5 to 0.5)); higher = stronger / more preferred TF binding
- study conditions: protein concentration: 100 nM; construct: GST-full length
In all, about 33,000 sequences were measured (“E-score (-0.5 to 0.5)”: median about -0.0034, highest 2% from about 0.25 on). The entries come from a sample that favours the highest values as a whole.
If the reported PBM E-score equals or exceeds -0.007, assign true. If not, assign false.

Worked examples follow.
- polymer sequence: "ATTATCGG"
  discrete label: "false"
- polymer sequence: "TTTACAAA"
  discrete label: "true"
- polymer sequence: "CGCGTAAA"
  discrete label: "true"
- polymer sequence: "ACAACCAC"
  discrete label: "true"
- polymer sequence: "ACATTTTC"
  discrete label: "true"

Is PBM E-score at least -0.007? Consider AAGTATCA true

Is PBM E-score at least -0.007? Consider AACGTAAT true

Is PBM E-score at least -0.007? Consider ACAGACGC false
